# System: LPS-induced TNFα secretion in monocyte-derived macrophages (MdM)
# Procedure details: MdM assay: LPS-triggered TNFα (ELISA)
# Type: cell-based, human
# Condition parameters: Homo sapiens, Macrophage, LPS-triggered TNFα inhibition
Recorded EC50, one value per entry.

Example entries and their recorded answers appear below.
[
  {
    "Chemical structure": "COc1cc(-c2cnc3cc(-c4cnn(CC(=O)OCCF)c4)ccn23)cc(OC)c1C(=O)NCC(F)(F)F",
    "Readout kind": "EC50",
    "Result": "0.1 to 100 nM"
  },
  {
    "Chemical structure": "CCNC(=O)c1c(OC)cc(-c2cnc3cc(-c4ccnnc4)ccn23)cc1OC(F)F",
    "Readout kind": "EC50",
    "Result": "1000 to 5000 nM"
  },
  {
    "Chemical structure": "CCNC(=O)c1c(OC)cc(-n2cnc3cc(-c4ccc(N5CCOCC5)nc4)ccc32)cc1OC",
    "Readout kind": "EC50",
    "Result": "100 to 1000 nM"
  },
  {
    "Chemical structure": "COc1cc(-n2cnc3cc(-c4cnn(C)c4)ccc32)cc(OC)c1C(=O)N1CC(C)(C)C1",
    "Readout kind": "EC50",
    "Result": "100 to 1000 nM"
  },
  {
    "Chemical structure": "COc1cc(-c2cnc3cc(-c4cnn(C)c4)ccn23)cc(OC)c1C(=O)NCC(F)(F)F",
    "Readout kind": "EC50",
    "Result": "0.1 to 100 nM"
  },
  {
    "Chemical structure": "COc1cc(-n2cnc3cc(-c4cc(C)no4)ccc32)cc(OC)c1C(=O)NCC(F)(F)F",
    "Readout kind": "EC50",
    "Result": "100 to 1000 nM"
  },
  {
    "Chemical structure": "COc1cc(-c2cnc3cc(-c4cnn(C)c4)ccn23)cc(NCCO)c1C(=O)NCC(F)(F)F",
    "Readout kind": "EC50",
    "Result": "0.1 to 100 nM"
  }
]

Prompt line: Checklist item: EC50 tested on LPS-induced TNFα secretion in monocyte-derived macrophages (MdM), entry "COc1cc(-n2cnc3cc(-c4cnn(C)c4)ccc32)cc(OC)c1C(=O)N[C@@H](C)C(F)(F)F" , value?
Response line: 0.1 to 100 nM

These measurements were taken from patent US12065443B2.
